So I've got a bunch of compounds here, and I need their IC50 values.
TESTED TARGET: NLRP3 inflammasome (Homo sapiens, UniProt Q96P20)
Sequence (Q96P20 whole entry): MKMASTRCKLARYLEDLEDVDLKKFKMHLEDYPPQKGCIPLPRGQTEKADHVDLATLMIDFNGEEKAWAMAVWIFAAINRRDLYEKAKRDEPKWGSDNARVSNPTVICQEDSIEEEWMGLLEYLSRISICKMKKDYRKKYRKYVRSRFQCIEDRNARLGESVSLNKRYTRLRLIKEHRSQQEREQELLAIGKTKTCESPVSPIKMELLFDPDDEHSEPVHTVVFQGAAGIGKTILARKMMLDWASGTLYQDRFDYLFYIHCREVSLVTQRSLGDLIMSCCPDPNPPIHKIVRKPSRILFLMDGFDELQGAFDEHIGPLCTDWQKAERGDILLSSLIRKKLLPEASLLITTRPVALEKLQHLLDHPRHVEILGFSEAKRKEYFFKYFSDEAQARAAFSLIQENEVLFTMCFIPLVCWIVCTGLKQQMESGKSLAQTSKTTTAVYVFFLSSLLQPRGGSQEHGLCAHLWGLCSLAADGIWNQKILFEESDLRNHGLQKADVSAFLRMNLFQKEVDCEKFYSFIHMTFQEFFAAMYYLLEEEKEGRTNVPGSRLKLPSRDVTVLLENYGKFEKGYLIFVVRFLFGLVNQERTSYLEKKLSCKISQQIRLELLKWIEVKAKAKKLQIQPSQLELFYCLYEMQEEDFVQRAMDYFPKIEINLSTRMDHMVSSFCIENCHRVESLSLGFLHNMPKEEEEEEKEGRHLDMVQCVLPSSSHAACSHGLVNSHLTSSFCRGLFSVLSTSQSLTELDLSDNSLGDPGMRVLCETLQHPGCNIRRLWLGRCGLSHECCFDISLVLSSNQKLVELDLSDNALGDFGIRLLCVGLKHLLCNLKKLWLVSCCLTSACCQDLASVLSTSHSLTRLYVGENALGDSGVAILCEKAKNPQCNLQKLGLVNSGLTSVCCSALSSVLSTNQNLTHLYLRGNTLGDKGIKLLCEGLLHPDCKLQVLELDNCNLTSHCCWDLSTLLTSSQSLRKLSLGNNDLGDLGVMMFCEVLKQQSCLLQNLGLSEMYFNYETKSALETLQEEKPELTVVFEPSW
MEASUREMENT NOTES: NLRP3 inflammasome activation assay in PBMCs, IL-1β release (ELISA / HTRF)
Assay type: cell-based
Set-up: were freshly isolated from human peripheral blood from healthy donors; StemCells Technologies; host or cells: primary human PBMCs, LPS-primed, nigericin-stimulated
DETAILS: LPS primed, 10 μM nigericin, read-out: PBMC IL-1β IC50
Answers are plain numbers, in nM.

Past entries and their recorded results:
{"COMPOUND": "NS(=O)(=NC(=O)Nc1c2c(c(F)c3c1CCC3)CCC2)c1cnn2c1OCCC2 (single isomer, unassigned) [Example 21]", "RESULT UNITS": "nM", "IC50": 4720}
{"COMPOUND": "CNC1COc2c(S(N)(=O)=NC(=O)Nc3c(C(C)C)cc(F)cc3C(C)C)cnn2C1 (single isomer, unassigned) [Example 27]", "RESULT UNITS": "nM", "IC50": 120}
{"COMPOUND": "COc1cc(C(C)C)c(NC(=O)N=S(N)(=O)c2cnn3c2OC[C@@H](N2CC(OC)C2)C3)c(C(C)C)n1 (single isomer, unassigned)", "RESULT UNITS": "nM", "IC50": 490}

Please look at the following compound next.
Respond only with IC50 recorded for CNCCO[C@@H]1COc2c(S(N)(=O)=NC(=O)Nc3c4c(cc5c3CCC5)CCC4)cnn2C1 (single isomer, unassigned)
1670
